Experiment: Half life in CD-1 mouse at 1 mg/kg, iv administered as bolus by LC-MS/MS analysis
Assay type: ADME, organism-based
Settings: in vivo
MEASURED_PROPERTY: half-life (h)
Answers are plain numbers, in h.

Exercise: Any idea what its half-life is? The compound is `O=C1N[C@](c2ccc(N3CCOCC3)cc2)(c2ccsc2)CC(O)=C1Sc1ccccc1Cl`
Key: 1

----------
Assay: Plasma clearance in CD-1 mouse at 1 mg/kg, iv administered as bolus by LC-MS/MS analysis
Format: ADME, organism-based
MEASURED_PROPERTY: clearance (mL/min/kg)
Answers are plain numbers, in mL/min/kg.

Exercise: Any idea what its clearance is? The compound is `O=C1N[C@](c2ccc(N3CCOCC3)cc2)(c2ccsc2)CC(O)=C1Sc1ccccc1Cl`
Key: 21.1
